molecular target: Methylcytosine dioxygenase TET3 (Homo sapiens); assay: Inhibition of recombinant human N-terminal Flag-tagged C-terminal His-tagged TET3 (824 to 1795 residues) expressed in Baculovirus infected Sf9 cells assessed as reduction in 5hmc level incubated for 2 hrs by ELISA
Sequence (O43151 whole entry, the tested form may be a part): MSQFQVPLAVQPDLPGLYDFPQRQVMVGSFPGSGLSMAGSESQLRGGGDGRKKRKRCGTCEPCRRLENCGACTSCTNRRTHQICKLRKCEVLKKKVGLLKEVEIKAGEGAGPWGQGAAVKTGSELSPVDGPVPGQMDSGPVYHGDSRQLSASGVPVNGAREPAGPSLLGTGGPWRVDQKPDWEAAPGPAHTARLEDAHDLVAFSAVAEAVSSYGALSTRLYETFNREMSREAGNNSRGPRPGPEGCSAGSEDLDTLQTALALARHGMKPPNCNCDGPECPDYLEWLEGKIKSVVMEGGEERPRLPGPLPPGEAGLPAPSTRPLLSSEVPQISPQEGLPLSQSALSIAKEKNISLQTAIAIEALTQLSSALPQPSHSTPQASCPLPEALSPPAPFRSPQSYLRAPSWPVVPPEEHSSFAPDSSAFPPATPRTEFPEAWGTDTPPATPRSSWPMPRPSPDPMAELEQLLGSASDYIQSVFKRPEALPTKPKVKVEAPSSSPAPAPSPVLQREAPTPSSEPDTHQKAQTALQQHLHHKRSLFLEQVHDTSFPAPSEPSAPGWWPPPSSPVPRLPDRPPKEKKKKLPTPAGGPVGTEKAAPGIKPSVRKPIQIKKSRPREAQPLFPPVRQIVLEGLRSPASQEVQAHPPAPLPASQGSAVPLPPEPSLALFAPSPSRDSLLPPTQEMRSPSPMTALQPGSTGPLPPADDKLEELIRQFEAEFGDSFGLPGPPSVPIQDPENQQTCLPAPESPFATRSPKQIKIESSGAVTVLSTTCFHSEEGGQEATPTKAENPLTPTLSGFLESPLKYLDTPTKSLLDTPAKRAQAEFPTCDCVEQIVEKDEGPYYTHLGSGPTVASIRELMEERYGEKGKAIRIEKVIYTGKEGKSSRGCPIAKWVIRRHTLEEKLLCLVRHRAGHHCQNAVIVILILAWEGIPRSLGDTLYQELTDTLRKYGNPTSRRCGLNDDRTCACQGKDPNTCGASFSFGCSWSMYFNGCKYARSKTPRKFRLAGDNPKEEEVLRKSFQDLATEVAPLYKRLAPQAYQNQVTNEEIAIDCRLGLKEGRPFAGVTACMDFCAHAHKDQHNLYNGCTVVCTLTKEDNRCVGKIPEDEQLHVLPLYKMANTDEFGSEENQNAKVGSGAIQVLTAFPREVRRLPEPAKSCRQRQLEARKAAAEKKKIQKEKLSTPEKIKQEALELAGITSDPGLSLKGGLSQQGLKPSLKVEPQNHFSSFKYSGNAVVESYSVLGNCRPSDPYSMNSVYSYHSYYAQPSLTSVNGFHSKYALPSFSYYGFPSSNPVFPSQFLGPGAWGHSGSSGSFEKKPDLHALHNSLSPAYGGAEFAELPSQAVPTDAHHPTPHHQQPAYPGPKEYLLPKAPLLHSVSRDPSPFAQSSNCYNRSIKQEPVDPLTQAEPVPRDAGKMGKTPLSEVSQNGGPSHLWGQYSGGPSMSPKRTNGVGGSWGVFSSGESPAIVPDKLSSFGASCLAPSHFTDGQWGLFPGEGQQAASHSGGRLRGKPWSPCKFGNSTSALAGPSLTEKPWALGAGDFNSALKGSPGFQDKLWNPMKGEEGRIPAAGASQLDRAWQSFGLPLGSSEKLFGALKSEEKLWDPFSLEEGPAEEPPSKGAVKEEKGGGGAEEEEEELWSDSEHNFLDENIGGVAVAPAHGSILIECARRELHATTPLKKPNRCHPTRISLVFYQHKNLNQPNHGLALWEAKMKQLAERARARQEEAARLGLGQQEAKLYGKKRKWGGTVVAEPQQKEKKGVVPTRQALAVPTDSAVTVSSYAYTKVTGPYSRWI
endpoint-label: IC50 (µM)
Give bare numbers, in µM.

Requested field: IC50. Item: C=C(CC(O)C(=O)O)C(=O)O (stereo unspecified)
8.8

====

Kindly supply the reported pIC50 values for the records listed here.
biological target: Methylcytosine dioxygenase TET2 (Homo sapiens, UniProt Q6N021); assay: Inhibition of recombinant human GST-tagged TET2 (1099 to 1936 residues) expressed in Escherichia coli BL21 (DE3)pLysS assessed as reduction in 5hmc level incubated for 2 hrs by ELISA
Give bare numbers, as −log10 of the molar value.

Would you mind listing pIC50 for each of the following compounds?
1. O=C(O)/C=C/C(=O)C(=O)O
2. C=C(C[C@@H](O)C(=O)O)C(=O)O
3. C=C(C[C@H](O)C(=O)O)C(=O)O

1: 3.97; 2: 4.96; 3: 4.98

====

assay: Inhibition of TET (unknown origin); parameters: species or system Homo sapiens
IC50 strictly under 2 mM means label 1; at 2 mM or over means label 0.

Observe how each entry below is paired with its result.
| compound | discrete-label |
| --- | --- |
| O=C(O)CC[C@@H](O)C(=O)O | label 0 |
| O=C(O)CC[C@H](O)C(=O)O | label 0 |
| O=C(O)CCC(=O)O | label 0 |
| CC(C)CC(NC(=O)C(=O)O)C(=O)O (stereo unspecified) | label 1 |
| O=C(O)CNC(=O)C(=O)O | label 1 |

Please examine the following record next.
Please indicate whether the reported IC50 of O=C(O)/C=C/C(=O)O is strictly below 2 mM.
label 0

====

target: Methylcytosine dioxygenase TET3 (Homo sapiens); experiment: Inhibition of TET3 (unknown origin)
endpoint-label: IC50 (nM)
One number for each entry, in nM.

Please look up its IC50: O=C(C[C@@H](O)CCc1ccc(O)c(O)c1)O[C@@H]1Cc2c(O)cc(O)cc2C[C@@H]1c1ccc(O)c(O)c1
2310
